System: velvetleaf (Abutilon theophrasti, ABUTH)
Assay: Pre-emerge test, greenhouse herbicide activity screening
Format: in vivo
Settings: 63 g ai/ha; rating scale 0-100, 14 days after application
Where Pre-emerge herbicidal activity, phytotoxicity rating ABUTH equals or exceeds 40, the correct label is Satisfied; where it does not, the label is Not satisfied.

- compound: "COc1c(Cl)cc(F)c(-n2c(=O)cc(C(F)(F)F)n(C)c2=O)c1CC(C)(Cl)C(=O)OCC(F)(F)C(F)F (centres unmarked)"
  system-under-test: "velvetleaf (Abutilon theophrasti, ABUTH)"
  class-assignment: "Satisfied"
- compound: "COc1c(Cl)cc(F)c(-n2c(=O)cc(C(F)(F)F)n(C)c2=O)c1CC(Cl)C(=O)OCC(F)(F)C(F)F (centres unmarked)"
  system-under-test: "velvetleaf (Abutilon theophrasti, ABUTH)"
  class-assignment: "Not satisfied"
- compound: "CCCCCCOC(=O)C(Cl)Cc1c(OC)c(Cl)cc(F)c1-n1c(=O)cc(C(F)(F)F)n(C)c1=O (single isomer, unassigned)"
  system-under-test: "velvetleaf (Abutilon theophrasti, ABUTH)"
  class-assignment: "Not satisfied"
- compound: "CCCOC(=O)C(Cl)Cc1c(OC)c(Cl)cc(F)c1-n1c(=O)cc(C(F)(F)F)n(C)c1=O (single isomer, unassigned) [14-7]"
  system-under-test: "velvetleaf (Abutilon theophrasti, ABUTH)"
  class-assignment: "Satisfied"
- compound: "Nc1c(O)c(Cl)cc(F)c1N1C(=O)C2CCCCN2C1=S (single isomer, unassigned)"
  system-under-test: "velvetleaf (Abutilon theophrasti, ABUTH)"
  class-assignment: "Satisfied"
- compound: "CCOC(=O)CCc1c(OC)c(Cl)cc(F)c1-n1c(=O)cc(C(F)(F)F)n(C)c1=O"
  system-under-test: "velvetleaf (Abutilon theophrasti, ABUTH)"
  class-assignment: "Satisfied"
- compound: "CCOC(=O)C(Br)Cc1c(OC)c(Cl)cc(F)c1-n1c(=O)cc(C(F)(F)F)n(C)c1=O (single isomer, unassigned)"
  system-under-test: "velvetleaf (Abutilon theophrasti, ABUTH)"
  class-assignment: "Not satisfied"
- compound: "C#CCOC(=O)C(C)(Cl)Cc1c(OC)c(Cl)cc(F)c1-n1c(=O)cc(C(F)(F)F)n(C)c1=O (centres unmarked)"
  system-under-test: "velvetleaf (Abutilon theophrasti, ABUTH)"
  class-assignment: "Satisfied"
- compound: "CCCCOC(=O)C(Cl)Cc1c(OC)c(Cl)cc(F)c1-n1c(=O)cc(C(F)(F)F)n(C)c1=O (single isomer, unassigned)"
  system-under-test: "velvetleaf (Abutilon theophrasti, ABUTH)"
  class-assignment: "Not satisfied"
- compound: "CCCCOC(=O)C(C)(Cl)Cc1c(OC)c(Cl)cc(F)c1-n1c(=O)cc(C(F)(F)F)n(C)c1=O (centres unmarked)"
  system-under-test: "velvetleaf (Abutilon theophrasti, ABUTH)"
  class-assignment: "Satisfied"
